Test: Toxicity liver stage against HepG2, at 10uM
Assay type: cell-based
Design: test concentration 10 uM, cell line HepG2-A16-CD81EGFP
Settings: human, HepG2-A16-CD81EGFP cells; read-out: INHIBITION

{"MOLECULE": "CCC(C)NC(=O)c1cc(S(=O)(=O)N2CCCC2)c(C)s1 (centres undefined)", "cytotoxicity at 10 µM": "-2.6%"}
{"MOLECULE": "CCCN1CCC(c2nc3ccc(-c4cccc(F)c4)cn3n2)CC1", "cytotoxicity at 10 µM": "-125%"}
{"MOLECULE": "CCCn1ccc(C(=O)N2CCC(C)CC2)n1", "cytotoxicity at 10 µM": "-7.01%"}
{"MOLECULE": "Cc1nccc(-c2cccc(NCC(=O)N3CCOC(C)C3)c2)n1 (centres undefined)", "cytotoxicity at 10 µM": "-0.776%"}
{"MOLECULE": "Cc1cc(C(=O)Nc2cccn(Cc3ccc(F)cc3)c2=O)no1", "cytotoxicity at 10 µM": "3.15%"}
{"MOLECULE": "Cc1cc(C)n(C2CN(Cc3ccc(C(=O)N4CCCC4)cc3)C2)n1", "cytotoxicity at 10 µM": "1.89%"}
{"MOLECULE": "N#Cc1ccc(S(=O)(=O)NCCn2ccnc2)cc1Cl", "cytotoxicity at 10 µM": "22.5%"}
{"MOLECULE": "O=C1CC(c2ccc(C(=O)O)cc2)c2ncn(-c3ccccc3Cl)c2N1 (centres undefined)", "cytotoxicity at 10 µM": "2.03%"}
{"MOLECULE": "CN1CCC(N(C)C[C@H]2CC[C@@H](Cc3ccc4c(cnn4C)c3)O2)CC1", "cytotoxicity at 10 µM": "5.03%"}

* * *

Test: Toxicity liver stage against HepG2, at 10uM
Type: cell-based
Design: test concentration 10 uM, cell line HepG2-A16-CD81EGFP
Conditions: human, HepG2-A16-CD81EGFP cells; read-out: INHIBITION
QUANTITY_NAME: cytotoxicity at 10 µM (%)

{"MOLECULE": "Cn1ccc(CN2CCC(Cc3ccccc3)CC2)cc1=O", "VALUE_UNIT": "%", "RECORDED_RESULT": 1.78}
{"MOLECULE": "CCn1ncc(S(=O)(=O)N[C@@H]2CC[C@@H](n3ccnc3C)[C@@H]2O)c1C", "VALUE_UNIT": "%", "RECORDED_RESULT": 3.65}
{"MOLECULE": "Cc1nnc(C(C)N2CCN(Cc3ccc(C(F)(F)F)cc3)CC2)o1 (stereo not given)", "VALUE_UNIT": "%", "RECORDED_RESULT": 8.15}
{"MOLECULE": "CCN(Cc1ccc2c(c1)OCCO2)C(=O)NC(C)Cn1ccnc1 (stereo not given)", "VALUE_UNIT": "%", "RECORDED_RESULT": -2.79}
{"MOLECULE": "COc1ncccc1CNC(=O)c1cc(F)cc(Br)c1", "VALUE_UNIT": "%", "RECORDED_RESULT": -0.872}
{"MOLECULE": "Cc1nc(C)n(CC2CN(CCn3cccn3)CCO2)n1 (stereo not given)", "VALUE_UNIT": "%", "RECORDED_RESULT": -0.665}
{"MOLECULE": "Cc1cccc(-c2c[nH]c(C3CCCN3C(=O)C3CCOCC3)n2)c1 (stereo not given)", "VALUE_UNIT": "%", "RECORDED_RESULT": 1.92}
{"MOLECULE": "CC(=O)N1CC2(CCN(C(=O)c3cccc4[nH]ccc34)CC2)C1", "VALUE_UNIT": "%", "RECORDED_RESULT": -138}
{"MOLECULE": "CN(Cc1ccc(C(=O)NCC2COCCO2)c(=O)[nH]1)CC(C)(C)C (stereo not given)", "VALUE_UNIT": "%", "RECORDED_RESULT": 3.21}
{"MOLECULE": "O=C(c1ccco1)N1CC[C@H]2C[C@@H](c3nccs3)O[C@@H]2C1", "VALUE_UNIT": "%", "RECORDED_RESULT": 0.428}
{"MOLECULE": "CC(C)c1nn(C)c(N2CCOCC2)c1CNC(C)c1cccs1 (stereo not given)", "VALUE_UNIT": "%", "RECORDED_RESULT": -5.06}
{"MOLECULE": "O=C(NCCn1ccnc1)c1cc(F)cc(Br)c1", "VALUE_UNIT": "%", "RECORDED_RESULT": -1.62}
{"MOLECULE": "CC(C)OC(=O)N1CCC(Cc2cccc(C(N)=O)c2)C1 (stereo not given)", "VALUE_UNIT": "%", "RECORDED_RESULT": 7.56}
{"MOLECULE": "c1cncc(-c2ccc3c(c2)C2(CCNCC2)CC3)c1", "VALUE_UNIT": "%", "RECORDED_RESULT": 4.59}
{"MOLECULE": "O=C(c1cnc(Nc2ccccc2)nc1)N1CCCC2(CCNC2)C1 (stereo not given)", "VALUE_UNIT": "%", "RECORDED_RESULT": -6.57}

* * *

Assay: Toxicity liver stage against HepG2, at 10uM
Assay type: cell-based
Set-up: test concentration 10 uM, cell line HepG2-A16-CD81EGFP
Details: human, HepG2-A16-CD81EGFP cells; read-out: INHIBITION
QUANTITY_NAME: cytotoxicity at 10 µM (%)

{"COMPOUND": "FC(F)(F)C1CCCn2c(CNCc3ccco3)nnc21 (stereo unspecified)", "QUANTITY_NAME": "cytotoxicity at 10 µM", "RECORDED_RESULT": -9.5}
{"COMPOUND": "Cc1cnn(CC(C)NCc2nc(-c3cccnc3)no2)c1 (stereo unspecified)", "QUANTITY_NAME": "cytotoxicity at 10 µM", "RECORDED_RESULT": -8.86}
{"COMPOUND": "Cc1cccc(CNC(=O)CC2CCN(S(C)(=O)=O)CC2)n1", "QUANTITY_NAME": "cytotoxicity at 10 µM", "RECORDED_RESULT": -1.57}
{"COMPOUND": "Cc1ccc(CC2COCCN(S(=O)(=O)c3ccccc3)C2)nc1 (stereo unspecified)", "QUANTITY_NAME": "cytotoxicity at 10 µM", "RECORDED_RESULT": -4.48}
{"COMPOUND": "CC(C)c1ncc(-c2cc(C3CCC3)nc(N)c2C#N)cn1", "QUANTITY_NAME": "cytotoxicity at 10 µM", "RECORDED_RESULT": -16.1}
{"COMPOUND": "O=C(NCCc1ccccc1F)NCC(O)c1cccc(F)c1 (stereo unspecified)", "QUANTITY_NAME": "cytotoxicity at 10 µM", "RECORDED_RESULT": -6.23}
{"COMPOUND": "Cc1ccsc1CN1CC[C@H]2O[C@H](C(=O)N3CCCO3)CC[C@H]21", "QUANTITY_NAME": "cytotoxicity at 10 µM", "RECORDED_RESULT": 4.52}
{"COMPOUND": "CCN1CCC(CC(=O)N2CCc3sc(C(=O)N(C)C)cc3C2)CC1", "QUANTITY_NAME": "cytotoxicity at 10 µM", "RECORDED_RESULT": -21.1}
{"COMPOUND": "Cc1nc(C2CCCN(C(=O)COCc3ccccc3)C2)no1 (stereo unspecified)", "QUANTITY_NAME": "cytotoxicity at 10 µM", "RECORDED_RESULT": -2}
{"COMPOUND": "O=S(=O)(CC1CCCCC1)NCc1ccc(O)nc1", "QUANTITY_NAME": "cytotoxicity at 10 µM", "RECORDED_RESULT": 5.27}
{"COMPOUND": "O=C(c1ccoc1)N1CCCC1C1CCN(Cc2ccccc2)CC1 (stereo unspecified)", "QUANTITY_NAME": "cytotoxicity at 10 µM", "RECORDED_RESULT": -10.6}
{"COMPOUND": "NC(=O)c1cnc(NC2CCC(c3ccccc3)CC2)c(Cl)c1 (stereo unspecified)", "QUANTITY_NAME": "cytotoxicity at 10 µM", "RECORDED_RESULT": 27.2}
{"COMPOUND": "Cc1nnc(N(CCC#N)CCC#N)s1", "QUANTITY_NAME": "cytotoxicity at 10 µM", "RECORDED_RESULT": -0.402}
{"COMPOUND": "O=C(NCCc1c[nH]cn1)c1n[nH]c2c1CCC2", "QUANTITY_NAME": "cytotoxicity at 10 µM", "RECORDED_RESULT": 1.67}
{"COMPOUND": "COc1ccc2c(c1)OCC(Cc1cnc(N)c(C)c1)C2 (stereo unspecified)", "QUANTITY_NAME": "cytotoxicity at 10 µM", "RECORDED_RESULT": -1.23}
{"COMPOUND": "O=C(C1CC1)N1Cc2[nH]nc(COCc3cccnc3)c2C1", "QUANTITY_NAME": "cytotoxicity at 10 µM", "RECORDED_RESULT": 0.997}
{"COMPOUND": "O=C(CCN1CCOC(C(F)(F)F)C1)NCc1ccccc1Cl (stereo unspecified)", "QUANTITY_NAME": "cytotoxicity at 10 µM", "RECORDED_RESULT": -3.13}
{"COMPOUND": "Cc1ccsc1CN(Cc1nc2c(cnn2C)c(=O)[nH]1)C(C)C", "QUANTITY_NAME": "cytotoxicity at 10 µM", "RECORDED_RESULT": -7.27}
{"COMPOUND": "CC(=O)N1CCC2(C1)c1ccccc1S(=O)(=O)N2C (stereo unspecified)", "QUANTITY_NAME": "cytotoxicity at 10 µM", "RECORDED_RESULT": 6.57}
{"COMPOUND": "COc1ccc(C(=O)NCCNC(=O)c2scnc2Cl)cc1", "QUANTITY_NAME": "cytotoxicity at 10 µM", "RECORDED_RESULT": -16.8}
{"COMPOUND": "CCOCC(=O)N(Cc1ccccn1)Cc1ccccc1C", "QUANTITY_NAME": "cytotoxicity at 10 µM", "RECORDED_RESULT": 3.21}
{"COMPOUND": "COc1cc(N2CC[C@@H](OC)[C@@H]2Cc2cnn(C)c2)ncn1", "QUANTITY_NAME": "cytotoxicity at 10 µM", "RECORDED_RESULT": -0.155}
{"COMPOUND": "Cc1cc(C)n(CC2CCCCN2CCCS(=O)(=O)N(C)C)n1 (stereo unspecified)", "QUANTITY_NAME": "cytotoxicity at 10 µM", "RECORDED_RESULT": 2.32}
{"COMPOUND": "COC(=O)Nc1cccc(C(=O)N(C)Cc2cccc(O)c2)c1", "QUANTITY_NAME": "cytotoxicity at 10 µM", "RECORDED_RESULT": -5.88}
{"COMPOUND": "CCc1c(O)nc(SCC(=O)Nc2ccccc2)n(C(C)CC)c1=O (stereo unspecified)", "QUANTITY_NAME": "cytotoxicity at 10 µM", "RECORDED_RESULT": 0.585}
{"COMPOUND": "O=C(NC1CC1)C1CN(C(=O)c2cnccn2)C1", "QUANTITY_NAME": "cytotoxicity at 10 µM", "RECORDED_RESULT": -10.2}
{"COMPOUND": "Cc1cccc(C(C(=O)N(C)Cc2ccco2)N(C)C)c1 (stereo unspecified)", "QUANTITY_NAME": "cytotoxicity at 10 µM", "RECORDED_RESULT": 3.15}
{"COMPOUND": "COc1ccc(C2CCCN2c2nnc(C)s2)c(OC)c1 (stereo unspecified)", "QUANTITY_NAME": "cytotoxicity at 10 µM", "RECORDED_RESULT": 9.74}
{"COMPOUND": "Cc1noc(C2CCCN2C(=O)C2CCC2)n1 (stereo unspecified)", "QUANTITY_NAME": "cytotoxicity at 10 µM", "RECORDED_RESULT": -12.4}
{"COMPOUND": "Cc1nc(N2CCCC2)ncc1-c1cc(O)nc(N2CCCCC2)n1", "QUANTITY_NAME": "cytotoxicity at 10 µM", "RECORDED_RESULT": 10.7}
{"COMPOUND": "COc1cccc2c1CCC2NC(=O)NCc1csc(N(C)C)n1 (stereo unspecified)", "QUANTITY_NAME": "cytotoxicity at 10 µM", "RECORDED_RESULT": -1.37}
{"COMPOUND": "COCCNc1nnc(-c2ccc(C)nc2)s1", "QUANTITY_NAME": "cytotoxicity at 10 µM", "RECORDED_RESULT": -8.55}
{"COMPOUND": "Cc1sc(Br)cc1S(=O)(=O)NCCCN", "QUANTITY_NAME": "cytotoxicity at 10 µM", "RECORDED_RESULT": 0.973}
{"COMPOUND": "CCc1nc(NCCn2cccn2)c2c(n1)c(C)nn2C", "QUANTITY_NAME": "cytotoxicity at 10 µM", "RECORDED_RESULT": 5.97}
{"COMPOUND": "O=C(COc1ccc2c(c1)CCCC2=O)NCc1ccco1", "QUANTITY_NAME": "cytotoxicity at 10 µM", "RECORDED_RESULT": 3.39}
{"COMPOUND": "Cc1nc2c(c(NC(C)C)n1)CCN(C1CCOCC1)CC2", "QUANTITY_NAME": "cytotoxicity at 10 µM", "RECORDED_RESULT": 9.26}
